Where these numbers come from: ChEMBL document CHEMBL1154306

System: Escherichia coli
EXPERIMENT_SUMMARY: Antiquorum sensing activity against Escherichia coli pS401 assessed as inhibition of Pseudomonas putida IsoF derived acyl-homoserinelactone-induced bioluminescence upto 200 ug after overnight incubation
Calls of active or inactive are those of the source. The calls are words filed in the database; no cut-off is given here.
MEASURED_PARAMETER: Activity

MOLECULE: C=C1CC/C=C(\C)CC[C@H](C(=C)C)[C@@H](OC(C)=O)/C=C(/COC(C)=O)CC[C@H]1O
ASSAY_RESULT: Active
//
MOLECULE: C=C(C)[C@@H]1C/C=C(/CO)CC[C@H]2O[C@]2(C)CC/C=C(\C)CC1 [KNIGHTOL]
ASSAY_RESULT: Active
//
MOLECULE: C=C(C)[C@H]1CC/C(C)=C/C/C=C(\C)[C@H](O)CC/C(COC(C)=O)=C\[C@@H]1OC(C)=O
ASSAY_RESULT: Active
//
MOLECULE: C=C(C)[C@@H]1C/C=C(/C=O)CC[C@H]2O[C@]2(C)CC/C=C(\C)CC1 [KNIGHTAL]
ASSAY_RESULT: Active
